B1: TNXB (parent)
chain: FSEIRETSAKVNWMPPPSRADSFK

variants of: B1; assay: protein stability index of a GFP-peptide fusion (GPS, HEK-293T) (PSI 1-6); higher = more stable; conditions: c terminus: a fixed tail appended;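 note: lentivirally expressed fusions sorted by FACS into six bins by GFP to DsRed ratio, PSI derived from sequencing read proportions per bin multiplied by bin number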
# protein stability index >= 3 gives met, anything below gives not met

variant.descriptor: N12R
cat: not met
--
variant.descriptor: R19N
cat: met
--
variant.descriptor: R19A
cat: met
--
variant.descriptor: K24V
cat: not met
--
variant.descriptor: E3Q
cat: met
--
variant.descriptor: A9R
cat: met
--
variant.descriptor: D21K
cat: met
--
variant.descriptor: S18R
cat: met
--
variant.descriptor: F1L
cat: met
--
variant.descriptor: T7F
cat: not met
--
variant.descriptor: F1M
cat: met
